System: Wolbachia pipientis
Assay: Anti-Wolbachia Cell-Based Screen
Type: functional
Parameters: scale not given: in the data most compounds retested in dose-response had high values
Details: 5 µM
Screen size: about 48,000 compounds; about 13,000 (27%) showed an effect of 50% or more. The list shows a part of the results.
reportedEndpoint: Percent Effect
Provide a numeric answer, followed by its unit.

Which measured Percent Effect value corresponds to `CC(C)N1C(=O)C[C@H]2[C@@H]1CCN2C(=O)c1ccco1` ?
-5.125%

Requested field: Percent Effect. Item: `CCc1ccc(C(=O)O)cc1S(=O)(=O)Nc1c(C)ccn(C)c1=O`
6.747%

Which Percent Effect value belongs to `Cc1cnn(Cc2ccc(NC(=O)N[C@@H]3C=C[C@H](CO)C3)cc2)c1` ?
-14.53%

Looking for the measured Percent Effect of `O=C(O)C(F)(F)F.O=C([C@H]1COC[C@H]2CN(CC3CCCC3)C[C@H]21)N1CCOCC1` , can you help?
-19.66%

Which value of Percent Effect has been reported for `O=C(CCc1cc2n(n1)CCN(Cc1ncc[nH]1)C2)N1CCCC1` in the records?
6.822%

// Percent Effect lookup, key: `COCCNC(=O)[C@@H](C)[C@@H]1CCc2c(C)cc(OCC(=O)O)c(C)c2C1`
-3.996%

May I ask what Percent Effect has been recorded for CN(C)C(CNCc1nc(-c2ccsc2)no1)c1cccc(F)c1 (stereo not given) ?
29.87%

Looking for the measured Percent Effect of `CC(C)N1CCC(CC(=O)N(C)CC(=O)c2ccc(O)cc2)CC1` , can you help?
-41.3%

Look at this molecule and give its reported Percent Effect. COc1ccc(NC(=O)N2CCCC2c2ccco2)cc1OC (stereo not given)
20.26%

Any idea what its Percent Effect is? The molecule is `CC(C)c1ccc(CS(=O)(=O)Cc2nc(N)nc(N(C)C)n2)cc1`
-6.914%

###

Give Percent Effect for every item shown.
System: Wolbachia pipientis
Experiment: Anti-Wolbachia Cell-Based Screen
Assay type: functional
Set-up: scale not given: in the data most compounds retested in dose-response had high values
Conditions: 5 µM
About 13,000 (27%) of roughly 48,000 compounds showed an effect of 50% or more. The list shows a part of the results.
Quick reminder: number only, in %, skip the unit.

Given the entry `Cn1ccc(C(=O)N2CCN(c3ccccn3)CC2)cc1=O` , report its measured Percent Effect.
94.46

Query (molecule): Cc1cc(C[S+]([O-])CC(=O)NCC(C)C)no1 (stereo not drawn) ; field requested: Percent Effect
-9.622

// returns reported Percent Effect for input `Cc1nnc(NC(=O)CN2CCc3nn(C(C)C)c(=O)cc3C2)s1`
104

Find the recorded Percent Effect belonging to `CCc1cc(NCc2ccc(-n3cncn3)c(C)c2)n(C)n1` and report it.
-10.44

Look up Percent Effect: `c1nc(N2CCN(Cc3nnnn3C3CC3)CC2)c2sccc2n1`
-5.403

Record request: Percent Effect value, item `COC[C@@H]1CCC[C@@]12CN(C(=O)N(C)C)CCO2`
101.2

Look up Percent Effect: Cc1cc(C[S+]([O-])CC(=O)NCc2ccccc2)no1 (stereo not drawn)
111.1

Look at this molecule and give its reported Percent Effect. COc1ccc(F)cc1C[S+]([O-])CC(=O)NCc1ccccc1 (stereo not drawn)
-20.74

Fill in the blank: the reported Percent Effect of Cc1nc(CN(C)C2CCN(CC(=O)NC3CCOCC3)C2)no1 (stereo not drawn) is ____.
-6.239

Bench note: what Percent Effect did `Cc1nsc(NCCNS(=O)(=O)c2cccc(Cl)c2)n1` show?
1.185

Fill blank: measured Percent Effect of the molecule Cc1csc(N2CCN(CC(=O)Nc3cccnc3)CC2C)n1 (stereo not drawn) is ____.
114.5

For `Cn1ccc(C(=O)N2CCN(c3ncccn3)CC2)cc1=O` , what is its reported Percent Effect?
-7.771

Query: Percent Effect; subject: Cc1c(-c2n[nH]c3c2CN(CC2CCOC2)CC3)cccc1C(F)(F)F (stereo not drawn)
-2.371

Report Percent Effect for `O=C(CN1CCN(c2nccs2)CC1)Nc1cccnc1` please.
105.2

Bench note: what Percent Effect did CC1CN(CC(=O)NCc2cccs2)CCN1c1nccs1 (stereo not drawn) show?
105.4

Which Percent Effect value is on record for `CCOc1cc(CN2CCCC2)ccc1Oc1cccc(C#N)n1` ?
-4.025

Which Percent Effect value belongs to `Cc1cc(-c2nc(C3(NC(=O)OC(C)(C)C)CCC3)no2)on1` ?
26.17

Which measured Percent Effect value corresponds to CSCC(C)C(=O)NCc1c(C)nc2cc(=O)[nH]n2c1C (stereo not drawn) ?
-19.78

Param item = CC1CN(CC(=O)NC(=O)NCc2cccs2)CCN1CC(F)(F)F (stereo not drawn) ; retrieve measured Percent Effect.
103.7

// query Percent Effect value for entry `O=C1[C@H]2CC[C@H](CN(c3ncnc4ccsc34)C2)N1CC1CC1`
70.25

Param item = `Cc1c(Cl)c(C(=O)N2CC[C@H](N3CCOCC3)[C@H](CCCO)C2)nn1C` ; retrieve measured Percent Effect.
-7.195

Request the reported Percent Effect associated with `CCN1CCc2[nH]cnc2C12CCN(c1ccc(Cl)c(C(=O)O)n1)CC2`
-7.204

Return reported Percent Effect; argument: COc1ccc(F)cc1C[S+]([O-])CC(=O)NCc1ccccc1C (stereo not drawn)
4.028

Give its Percent Effect value. Item: `Cc1cnn(CCNCc2ccccc2Oc2cccnc2)c1`
8.919

Quick check: Percent Effect of `Cn1ccc(C(=O)N2CCN(c3cc(C#N)ccn3)CC2)cc1=O` ?
6.84

Entry `CCc1c(C)nn(CCNC(=O)c2cnn[nH]2)c1C` has what Percent Effect?
-18.26

Which measured Percent Effect value corresponds to COc1cc(C)c(CNC(C)c2csc(C)n2)cc1OC (stereo not drawn) ?
-9.97

Name the recorded Percent Effect for `CCc1n[nH]c(C(=O)NCCn2ccnc2C)c1C` .
12.68

Could you tell me which Percent Effect is on file for COc1ccc2c(c1)CC(C(=O)N(C)Cc1noc3c1CCCC3)CO2 (stereo not drawn) ?
-16.58

Name the recorded Percent Effect for CCCN1CC2(CCN(C)CC2)CC1C(=O)NCCn1ccc(C)n1 (stereo not drawn) .
5.137

State the recorded Percent Effect for this entry: COc1ccccc1CNC(=O)C[S+]([O-])Cc1cc(C)on1 (stereo not drawn)
100.1

Consider the molecule Cc1cc(C[S+]([O-])CC(=O)NCc2cccc(Cl)c2)no1 (stereo not drawn) and give its measured Percent Effect.
98

So what's the measured Percent Effect for this one? `CCc1n[nH]c(C(=O)NCCn2ccc(C)n2)c1C`
161.5

Which Percent Effect is listed for `O=C(c1cncc(N2CCCC3(CCNCC3)CC2)n1)N1CCCCC1` ?
3.422

Query (molecule): O=C(C1CCCN(Cc2cccc(F)c2)C1)N1CCc2sccc2C1 (stereo not drawn) ; field requested: Percent Effect
1.206

I would be grateful if you could share the reported Percent Effect for Cc1nc(CN(C)C2CCN(CCC(=O)N3CCOCC3)C2)no1 (stereo not drawn) .
118.2

Using the record for `O=C(CCc1cn[nH]c1)N1C[C@H](CO)C[C@H](CN2CCOCC2)C1` , report its Percent Effect.
-1.636

What value of Percent Effect has been recorded for this entry: `O=C(CCN1CCCN(c2nccs2)CC1)Nc1ccccc1`
4.493

What value of measured Percent Effect is listed for `COc1cccc(C(=O)N2CCN(C(=O)CCn3ccnc3)CC2)c1` ?
-2.961

Name the recorded Percent Effect for `Cc1ccccc1CN1CCN(CC(=O)Nc2cccnc2)CC1` .
7.585

What does the record list as Percent Effect for `CCn1ccnc1C1CCN(c2ncnc3ccsc23)CC1` ?
-4.66

So what does the record say about Percent Effect for `O=C(c1ccco1)N1CCc2ncnc(NCc3ccccn3)c2CC1` ?
-3.443

GET /values?readout=Percent Effect&item= `Cc1cnc(C(=O)N2CCCN(Cc3cnn(C(C)C)c3)CC2)cn1`
1.046

Need Percent Effect, item Cc1nc(CNC(C)c2ccc(OCC(=O)NC3CC3)cc2)cs1 (stereo not drawn)
11.98

Requested read-out: Percent Effect. Entry: CN(Cc1noc(C2CC2)n1)C1CCN(CC(=O)N2CCOCC2)C1 (stereo not drawn)
87.19

Could you share which Percent Effect value was measured for Cc1csc(N2CCN(CCc3ccccn3)CC2C)n1 (stereo not drawn) ?
3.431

What value of measured Percent Effect is listed for `Cc1cc(N2CCN(C(=O)CCc3scnc3C)CC2)nc(N)n1` ?
8.877

Return reported Percent Effect; argument: `COC[C@@H]1CCC[C@@]12CN(C(=O)N1CCCC1)CCO2`
87.5

###

Test system: Wolbachia pipientis
Assay: Anti-Wolbachia Cell-Based Screen
Assay type: functional
Parameters: scale not given: in the data most compounds retested in dose-response had high values
Conditions: 5 µM
In all, about 48,000 compounds went through this assay and about 13,000 (27%) showed an effect of 50% or more. The list shows a part of the results.
Kindly state Percent Effect for each of the entries shown.
Report the figure in % without appending any unit label.

Consider the molecule shown here: `Cc1ccc(S(=O)(=O)Cc2noc([C@@H]3C[C@@H](O)CN3C(C)C)n2)cc1` What is its recorded Percent Effect?
-1.954

Which Percent Effect is reported for this molecule? `O=S(=O)(c1cc(F)cc(F)c1)N1CCC(Oc2ccc(Cl)cn2)CC1`
14.51

Please give the measured Percent Effect for this molecule: `Cc1cnn(-c2ccc(S(N)(=O)=O)cc2F)c1`
-6.422

Given the entry COc1cccc(CNC(=O)C(C)n2ccnc2C(C)C)c1OC (centres undefined) , report its measured Percent Effect.
-21

State the recorded Percent Effect for this entry: Cl.c1cnc(N2CCCC(NCc3cccc4c3OCCO4)C2)nc1 (centres undefined)
11.77

Which value of Percent Effect has been reported for O=C(CCCn1cncn1)N1CCCC1c1noc(C2CC2)n1 (centres undefined) in the records?
94.63

State the recorded Percent Effect for this entry: `Cc1ccnc(NS(=O)(=O)c2cc(C(N)=O)n(C)c2)c1`
8.268

Which Percent Effect value is on record for `O=C(c1cnccn1)N1CCN2C[C@H](OCc3ccccn3)C[C@H]2C1` ?
1.808

For the molecule shown here, `COc1ccc(C(=O)N(CCO)Cc2ccccc2)c(OC)n1` , give the reported Percent Effect.
150.7

# query: Percent Effect of entry `O=S(=O)(c1ccc(F)c(F)c1)n1cc(Cl)cn1`
96.85

Dear colleague, I am looking for the recorded Percent Effect of the following molecule: `CCCc1cc(C(=O)N(C)Cc2ccc(OC)c3ncccc23)n(C)n1`
-87.89

Requested field: Percent Effect. Item: CC1CN(S(=O)(=O)c2ccc(F)cc2)c2cccnc2O1 (centres undefined)
-6.329

Return reported Percent Effect; argument: `COc1cccc(OC)c1-c1ccnc2cc(CC(=O)N(C)C)nn12`
89.81

Fill in the blank: the reported Percent Effect of `COc1ccccc1CC(=O)NCc1ccnc(NC2CC2)c1` is ____.
-7.733

Record request: Percent Effect value, item COc1ccccc1CC1CCCN(CC(=O)NC2CC2)C1 (centres undefined)
10.43

Value lookup for Percent Effect; key = `O=C(NCCN1CCOCC1)c1cc(-c2ccc(Cl)s2)[nH]n1`
11.57

Which Percent Effect is reported for this molecule? COCCN(C)CC1CCCN1S(=O)(=O)c1cc(C)oc1C (centres undefined)
0.4223

Record request: Percent Effect value, item `Cc1csc(CCNC(=O)c2ccc(N(C)C)c(F)c2)n1`
-10.73

Given `COc1ccc(F)cc1S(=O)(=O)N1CCC(Oc2ccc(Cl)cn2)CC1` , state its recorded Percent Effect.
-6.405

What Percent Effect value was documented for this molecule, `CSc1ncccc1C(=O)N(CCO)Cc1ccccc1` ?
110.2

What value of measured Percent Effect is listed for `O=C(c1ccn(-c2ccc(F)cc2)n1)N(CCO)Cc1cccnc1` ?
6.446

Using the record for O=C(CCCn1cncn1)N1CCCC1c1nc(-c2ccccc2)no1 (centres undefined) , report its Percent Effect.
16.9

Recorded Percent Effect of `COc1cccc(OC)c1-c1ccnc2cc(CC(=O)NC3CC3)nn12` , please.
130.6

Fill in the blank: the reported Percent Effect of `Cc1n[nH]c(C)c1CCc1nc(C2CC2)n[nH]1` is ____.
-13.82
